Reference source for all entries: the supplement of paper PMC10567573

B1: RTP4 (parent)
chain: AFGWFRCSSCQRSWASAQVQILCH

Variants of: B1
Assay text: protein stability index of a GFP-peptide fusion (GPS, HEK-293T) (PSI 1-6); higher = more stable;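 further: lentivirally expressed fusions sorted by FACS into six bins by GFP to DsRed ratio, PSI derived from sequencing read proportions per bin multiplied by bin number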
Experimental context: c terminus: a fixed tail appended
Quick reference for protein stability index among some variants
In your answer, state the number alone without any accompanying words.

Sample answers from the record:
For the variant F2P , report protein stability index.
2.67

For the variant R6N , report protein stability index.
1.77

Continuing:
For the variant Q11T , report protein stability index.
3.55

For the variant S9N , report protein stability index.
2.39

For the variant F5C , report protein stability index.
1.77

For the variant F5Q , report protein stability index.
2.99
